The following compounds are shown together with reported HDAC6 activity raw data (signal) values.
# MEASUREMENT_TARGET: HDAC6 (Homo sapiens, UniProt Q9UBN7)
# Construct: purchased Reaction Biology Corporation (assay run by the CRO)
# Sequence (Q9UBN7 whole entry): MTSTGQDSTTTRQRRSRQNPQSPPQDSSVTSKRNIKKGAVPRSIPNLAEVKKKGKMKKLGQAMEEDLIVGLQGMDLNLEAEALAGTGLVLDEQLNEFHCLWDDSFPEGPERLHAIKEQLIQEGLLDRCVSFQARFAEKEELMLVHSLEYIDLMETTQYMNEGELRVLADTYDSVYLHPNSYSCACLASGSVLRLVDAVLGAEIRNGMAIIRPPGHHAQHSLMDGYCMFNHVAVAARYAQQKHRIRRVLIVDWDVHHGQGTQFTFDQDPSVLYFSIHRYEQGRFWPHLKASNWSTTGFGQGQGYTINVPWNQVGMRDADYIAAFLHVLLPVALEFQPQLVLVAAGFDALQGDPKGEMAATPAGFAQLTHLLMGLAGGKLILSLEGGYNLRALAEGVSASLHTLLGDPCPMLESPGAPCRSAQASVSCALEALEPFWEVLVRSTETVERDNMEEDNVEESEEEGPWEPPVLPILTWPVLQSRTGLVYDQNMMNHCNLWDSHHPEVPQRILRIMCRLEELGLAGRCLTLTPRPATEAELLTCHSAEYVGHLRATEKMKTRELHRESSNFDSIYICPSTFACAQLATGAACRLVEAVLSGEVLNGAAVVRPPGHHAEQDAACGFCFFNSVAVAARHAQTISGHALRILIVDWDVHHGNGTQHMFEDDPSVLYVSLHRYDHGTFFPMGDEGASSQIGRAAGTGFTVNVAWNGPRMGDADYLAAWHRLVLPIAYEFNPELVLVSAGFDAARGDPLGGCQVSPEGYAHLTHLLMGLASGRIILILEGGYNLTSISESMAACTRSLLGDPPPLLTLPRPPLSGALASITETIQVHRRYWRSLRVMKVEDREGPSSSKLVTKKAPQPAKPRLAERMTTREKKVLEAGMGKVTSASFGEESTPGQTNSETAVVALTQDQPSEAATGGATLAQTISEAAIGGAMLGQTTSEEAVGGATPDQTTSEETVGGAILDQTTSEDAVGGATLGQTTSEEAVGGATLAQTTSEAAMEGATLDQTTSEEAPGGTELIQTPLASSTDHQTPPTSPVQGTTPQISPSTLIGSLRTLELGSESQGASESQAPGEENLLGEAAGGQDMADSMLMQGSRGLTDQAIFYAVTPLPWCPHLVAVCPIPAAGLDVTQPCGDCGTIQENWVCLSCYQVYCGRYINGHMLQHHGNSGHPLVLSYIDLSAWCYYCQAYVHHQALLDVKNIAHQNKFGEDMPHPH
# EXPERIMENT: HDAC6 inhibition, full IC50 measurement (Reaction Biology; fluorogenic p53 peptide RHKK(Ac)AMC)
# Type: biochemical
# RUN_PARAMETERS: Conc. 3.33E-06 M, t2
Peptide text beside a SMILES is read from it.

COMPOUND	HDAC6 activity raw data (signal)
CCCC[C@H]1NC(=O)[C@H](Cc2ccccc2)NC(=O)[C@H](CCCCCS)NC(=O)[C@@H](CO)NC(=O)[C@H](CC(=O)O)NC(=O)[C@@H](CO)NC(=O)[C@@H](C)NC(=O)[C@H](CCCCN)NC1=O [des4.3.1.1, SHA-Phe-dNle-Lys-dAla-dSer-Asp-dSer] (HELM PEPTIDE1{D.[dS].[O=C([C@H](CCCCCS)N[*:1])[*:2]].F.[CCCC[C@@H](N[*:1])C(=O)[*:2]].K.[dA].[dS]}$PEPTIDE1,PEPTIDE1,1:R1-8:R2$$$V2.0)	332099
N=C(N)NCCC[C@@H]1NC(=O)[C@H](Cc2c[nH]c3ccccc23)NC(=O)[C@H](CC(=O)O)NC(=O)[C@@H](CO)NC(=O)[C@H](Cc2c[nH]c3ccccc23)NC(=O)[C@H](CCCCCS)NC(=O)[C@H](CCC(N)=O)NC1=O [des4.1.0, SHA-Trp-dSer-Asp-Trp-Arg-Gln] (HELM PEPTIDE1{D.W.R.Q.[O=C([C@H](CCCCCS)N[*:1])[*:2]].W.[dS]}$PEPTIDE1,PEPTIDE1,1:R1-7:R2$$$V2.0)	-3634
C[C@H](O)[C@H]1NC(=O)[C@H](Cc2c[nH]c3ccccc23)NC(=O)[C@H](CCCCCS)NC(=O)[C@H](CCCCN)NC(=O)[C@@H](CC(=O)O)NC(=O)[C@@H](CCCCN)NC(=O)[C@@H](CO)NC(=O)[C@H](CC(N)=O)NC(=O)[C@H](CC(=O)O)NC1=O [des2.1.0, SHA-Trp-dThr-Asp-Asn-dSer-dLys-dAsp-Lys] (HELM PEPTIDE1{D.N.[dS].[dK].[dD].K.[O=C([C@H](CCCCCS)N[*:1])[*:2]].W.[dT]}$PEPTIDE1,PEPTIDE1,1:R1-9:R2$$$V2.0)	9723
CCCC[C@H]1NC(=O)[C@H](Cc2ccccc2)NC(=O)[C@H](CCCCCS)NC(=O)[C@@H](CCCNC(=N)N)NC(=O)[C@H](C)NC(=O)[C@@H](CO)NC(=O)[C@@H](C)NC(=O)[C@H](CCCCN)NC1=O [des4.3.1.3, SHA-Phe-dNle-Lys-dAla-dSer-Ala-dArg] (HELM PEPTIDE1{A.[dR].[O=C([C@H](CCCCCS)N[*:1])[*:2]].F.[CCCC[C@@H](N[*:1])C(=O)[*:2]].K.[dA].[dS]}$PEPTIDE1,PEPTIDE1,1:R1-8:R2$$$V2.0)	24989
NCCCC[C@@H]1NC(=O)[C@@H]2CCCN2C(=O)[C@H](CC(N)=O)NC(=O)[C@H](CCCCCS)NC(=O)CNC(=O)[C@H](Cc2c[nH]c3ccccc23)NC(=O)[C@@H](CCCCN)NC(=O)[C@H](CCC(N)=O)NC1=O [des1.1.0, SHA-Asn-Pro-Lys-Gln-dLys-Trp-Gly] (HELM PEPTIDE1{G.[O=C([C@H](CCCCCS)N[*:1])[*:2]].N.P.K.Q.[dK].W}$PEPTIDE1,PEPTIDE1,1:R1-8:R2$$$V2.0)	5788
